Data origin: a melting point compilation (Tetko et al.; mined from patent text by program, amines drawn as free bases though some values may be those of a salt)

Entries and their melting point

1) Cc1c(NC(=O)c2ccc(CC(=O)C3CCOC3)cc2)ccc2cc(CN3CCCC3)cnc12 (stereo not given); 142 to 143 °C

input: Tell me the measured melting point of CCc1ccc(C2CCC(c3ccc(Oc4ccc([N+](=O)[O-])cc4)cc3)(c3ccc(Oc4ccc([N+](=O)[O-])cc4)cc3)CC2)cc1 , please.
output: 204 to 205 °C

input: Tell me the measured melting point of COC(=O)C=Cc1cnc(SC)nc1N , please.
output: 192 to 196 °C

input: Tell me the measured melting point of C(=Cc1ccccc1)CN1CCN(C2c3ccccc3Sc3ccccc32)CC1 , please.
output: 115 to 117 °C

input: Tell me the measured melting point of Nc1ncc2c(n1)-c1ccc(Cl)cc1C(c1ccccc1)=NC2 , please.
output: 209 to 210 °C

* * *

Entries and their melting point

Field: example entries. Status: answers known.
1. COc1ccc(C(=O)NC(=O)Nc2cccc3c2CC(=O)N3)cc1; 276 to 279 °C
2. COc1cc(NS(C)(=O)=O)ccc1-c1nc2cc3c(cc2[nH]1)NC(=O)C3(C)C; > 300 °C
3. Cc1onc(-c2ccc(Br)cc2)c1-c1ccc(S(N)(=O)=O)cc1; 152 to 153 °C
4. O=c1nc(-c2ccc(F)cc2)c2ccccc2[nH]1; 294 to 298 °C

Note: attention shifts to another entry.
input: Tell me the measured melting point of CS(=O)(=O)N(c1ccc(Cl)c(C(=O)Nc2cccc3c4c(oc23)CCCC4)c1Cl)S(C)(=O)=O , please.
output: 237 to 238 °C

* * *

MEASURED PARAMETER: melting point

1) COC(=O)c1ccc2c(OC)ccnc2c1; 147 to 148 °C
2) CCCCCS(=O)(=O)NC(=O)c1ccc2[nH]cc(Cc3ccc(Cl)cc3Cl)c2c1; 157 to 158 °C
3) CCOC(=O)C1=C(C)NN=C(C(=O)OC)C1c1ccccc1[N+](=O)[O-] (stereo unspecified); 168 to 169 °C
4) COC(=O)c1ccc(C#CC2(O)CN3CCC2CC3)nc1 (stereo unspecified); 180 to 182 °C
5) CCNC1CN(c2c(F)cc3c(=O)c(C(=O)O)cn(C4CC4)c3c2F)C1; 222 to 227 °C

Note: attention shifts to another entry.
input: Tell me the measured melting point of COc1ccc(-c2nccn2N=Cc2ccccc2)cc1 , please.
output: 155 °C

* * *

Entries and their melting point

1) OCC(CO)Cc1ccccc1; 64 to 65 °C

input: Tell me the measured melting point of Cc1nc2c(OCc3c(Cl)ccc(N(C)C(=O)CNC(=O)CN4C(=O)c5ccccc5C4=O)c3Cl)cccn2c1Br , please.
output: 148 to 150 °C

* * *

Entries and their melting point

1) CCOC(=O)c1ncc2[nH]c3cccc(OC4CCC4)c3c2c1COC; 196 to 197 °C
2) C=C1CCCC2CCC3C(CCC4(C)C3C(C#N)C35OCCOC43OCCO5)C12C (stereo unspecified); 229 °C
3) CN1CCC(CC(O)c2cc(-c3ccccc3)nc3ccccc23)CC1 (stereo unspecified); 208 °C

input: Tell me the measured melting point of CC(=O)c1cc(C)n(CCO)n1 , please.
output: 78 to 79 °C

input: Tell me the measured melting point of Cc1noc(NS(=O)(=O)c2c(C)sc3ccccc23)c1C , please.
output: 174 to 176 °C

* * *

MEASURED PARAMETER: melting point

Field: example entries. Status: answers known.
1. COP(=O)(Cc1ccc(-c2nc3ccccc3s2)nc1)OC; 152 °C
2. O=C(O)CCc1oc(SC2CCCCC2)nc1-c1ccc(Cl)cc1; 136 to 137 °C
3. Cc1cccc(C2CCCCS2=O)n1 (centres undefined); 100 °C
4. CS(=O)(=O)Nc1ccc(C(=O)NCC23CCCN(CCC2)C3)cc1; 137 to 139 °C
5. CCCCCP(=S)(CCCCC)NP(=S)(CCCCC)CCCCC; 59 to 63.5 °C

input: Tell me the measured melting point of CC(=O)Nc1ccc2nc(-c3ccccc3)cc(OCC(=O)N3CCOCC3)c2c1 , please.
output: 261 °C

* * *

MEASURED PARAMETER: melting point

1) O=C(c1ccc(OCc2ccccc2)cc1O)c1ccc(OCc2ccccc2)cc1O; 140 to 142 °C
2) CCSN(C)C(=O)Nc1ccc(C)c(Cl)c1; < 50 °C
3) CCOc1nc2ccccc2n(-c2ccc(Cl)cc2)c1=O; 244 to 246 °C
4) O=C(OI(OC(=O)C(F)(F)F)C(F)(F)C(F)(F)C(F)(F)C(F)(F)C(F)(F)C(F)(F)F)C(F)(F)F; 60 to 62 °C
5) CC(C)c1ccc(S(=O)(=O)Nc2ccc(N3CCC(NCC(O)COc4ccc(O)cc4)CC3)nc2)cc1 (configuration not stated); 75 to 78 °C

input: Tell me the measured melting point of CCOC(=O)CCCn1nnnc1-c1ccc2c(c1)[C@@H](Nc1ccnc(SC)n1)[C@](C)(O)C(C)(C)O2 , please.
output: 115 to 130 °C

input: Tell me the measured melting point of Cn1c(-c2ccccc2Cl)nnc1-c1ccccc1Cl , please.
output: 140 °C

input: Tell me the measured melting point of CC(C)(O)CC12C=CC=CC1C(=O)NC2=O (configuration not stated) , please.
output: 104 to 105 °C

input: Tell me the measured melting point of CCOC(=O)/C(=N\OCC(=O)N1CCCCC1)c1csc(N)n1 , please.
output: 151 to 152 °C

input: Tell me the measured melting point of Cc1ccc(N2CCN(Cc3c[nH]c4ncccc34)CC2)cc1 , please.
output: 220 to 222 °C

input: Tell me the measured melting point of Brc1cccc(Oc2ccccc2)n1 , please.
output: 83 to 86 °C

input: Tell me the measured melting point of O=C(CBr)Nc1c(Cl)cccc1C(=O)O , please.
output: 173 to 175 °C

* * *

Entries and their melting point

Field: example entries. Status: answers known.
1) Cc1c(C)c2c(c(C)c1NCc1ccc3c(c1)OCO3)C(c1ccc(C(C)C)cc1)C(C)(C)O2 (centres undefined); 100 to 102 °C
2) CC(C)(C)NC(=O)[C@@H]1C[C@H](O)CN1C(=O)[C@@H](O)[C@H](Cc1ccccc1)NC(=O)[C@H](CC(N)=O)NC(=O)OCc1ccccc1; 113 to 115 °C
3) CC(C)c1nn(-c2ccccn2)cc1CCCOc1ccccc1CC(=O)O; 140 to 142 °C
4) CC(C)(C#N)c1cc(-n2cncc2C#N)cc(C(C)(C)C#N)c1; 88 to 90 °C
5) NS(=O)(=O)c1cc(C(=O)OCC(=O)N2CCC(CCO[N+](=O)[O-])CC2)c(NCc2ccco2)cc1Cl; 170 °C

input: Tell me the measured melting point of Nc1cncc(O)c1CCCOc1cccnc1Oc1cccc(Cl)c1 , please.
output: 75 to 90 °C

input: Tell me the measured melting point of Nc1c(-c2cc(Cl)ccc2O)nnn1-c1ccc(Cl)cc1Cl , please.
output: 131 to 136 °C

input: Tell me the measured melting point of CCOC(=O)c1cnn2c1nc(N1CCN(C)CC1)c1cnc3c(cnn3CC)c12 , please.
output: 111 to 113 °C

input: Tell me the measured melting point of CCOCc1nc2c(N)nc3ccccc3c2n1NC(CC)CC , please.
output: 125 to 128 °C

input: Tell me the measured melting point of COc1c(C)cc(C(=O)c2cc(-c3ccc(NC(C)=O)cc3)c(N3CCOCC3)s2)nc1C , please.
output: 145 °C

input: Tell me the measured melting point of COc1ccc2nc(-c3ccc(OC)c(F)c3)cc(O)c2c1 , please.
output: 326 to 328 °C

input: Tell me the measured melting point of O=c1cc(NCCN2CCN(c3cccc4c3OCCO4)CC2)cn[nH]1 , please.
output: 244 to 246 °C

input: Tell me the measured melting point of Cc1nc2cc3c(cc2c(=O)[nH]1)CCC3 , please.
output: 284 °C

input: Tell me the measured melting point of COc1cc(OCc2ccccn2)ccc1/C=C/c1cc(/C=C/c2cccc3cc[nH]c23)n[nH]1 , please.
output: 99 to 110 °C

input: Tell me the measured melting point of CCCCCCCCCCCCC1=C(OC)C(=O)c2ccccc2C1=O , please.
output: 61 to 63 °C

input: Tell me the measured melting point of Cc1nc(NC(=O)c2ccncc2)sc1C(=O)NCc1ccccc1 , please.
output: 171 to 172 °C

input: Tell me the measured melting point of CCOc1ccc(Nc2nc(NCc3ccco3)nc(Nc3ccc(O)cc3)n2)cc1 , please.
output: 43 to 45 °C

input: Tell me the measured melting point of O=C(CBr)c1cc2c(Cl)cccc2s1 , please.
output: 116 to 118 °C

input: Tell me the measured melting point of NCCCCCCCNC(=O)COCC(=O)NC1CCC2C3Cc4ccccc4C2(CCN3)C1 (centres undefined) , please.
output: 83 to 85 °C

input: Tell me the measured melting point of O=C(c1cccs1)N(CCCSc1ccncc1)c1ccccc1 , please.
output: 66 to 67 °C

input: Tell me the measured melting point of COCc1c(-c2csc(C)n2)ncc2c1c1cc(OCc3ccccc3)ccc1n2S(=O)(=O)c1ccc(C)cc1 , please.
output: 173 to 175 °C
